assay: Human HepG2 cell viability assay in 384 well format; format: toxicity, cell-based; design: dose 125 nL, time 70.5 hour; concentration not given beside the values; conditions: HepG2 cells, read-out: Inhibition
MEASUREMENT NAME: cytotoxicity at 70.5 h (%)
One number for each entry, in %.

>  <COMPOUND>
Cc1cc(CNC(=O)Cc2c(C)nc3cc(=O)[nH]n3c2C)no1

>  <MEASURED>
-4.77

$$$$
>  <COMPOUND>
Cc1ccc(-c2cn[nH]c2C2CCCN(c3cc(N)ncn3)C2)cc1 (configuration not stated)

>  <MEASURED>
5.4

$$$$
>  <COMPOUND>
CCc1nccn1CCC(=O)N1C[C@H]2CC[C@@H]1CN(C(=O)N(C)C)C2

>  <MEASURED>
-3.14

$$$$

Kindly give each listed record's cytotoxicity at 70.5 h.
1. Cc1cccc2c1nc1n2[C@@H](CNC(=O)CCC(=O)O)COC1
2. CC(C)Oc1nnc(SCC(=O)NCC(=O)N2CCCC2)s1
3. Cc1ncc(CN2CCOC(CN(C)c3cccnn3)C2)s1 (configuration not stated)
4. CC(=O)NCC(=O)N1Cc2nc(COCc3csc(C)n3)oc2C1
5. COc1ccc(C(CNC(=O)c2cnc(C)cn2)N2CCOCC2)cc1 (configuration not stated)
6. Cc1cnc(-c2nc(C3CCN(Cc4ccccc4C)CC3)no2)cn1
7. Cc1nc2n(n1)CC(Nc1cc(C(F)(F)F)nc3ncnn13)CC2 (configuration not stated)

1: -4.85; 2: -10.4; 3: -9.59; 4: -8.19; 5: -3.63; 6: -8.63; 7: -0.866

Kindly give each listed record's cytotoxicity at 70.5 h.
1. COC(=O)CC(NC(=O)c1ccccc1OC)c1cccs1 (configuration not stated)
2. COc1ccc(NC(=O)c2ccccc2NCc2ncnn2C)cc1

5.97
-19.9

###

assay: Human HepG2 cell viability assay in 384 well format; assay type: toxicity, cell-based; parameters: dose 125 nL, time 70.5 hour; concentration not given beside the values; settings: HepG2 cells, read-out: Inhibition
MEASUREMENT NAME: cytotoxicity at 70.5 h

The cases that follow already have their cytotoxicity at 70.5 h on record.
>  <COMPOUND>
Cc1cc(CN(C)C(=O)Nc2ccccc2C)no1

>  <cytotoxicity at 70.5 h>
-4.53%

$$$$
>  <COMPOUND>
COc1cc(CNCCc2cnn(C)c2)cc2c1OCO2

>  <cytotoxicity at 70.5 h>
-8.59%

$$$$

Shifting focus to the compound that follows.
Quick one: cytotoxicity at 70.5 h of `CCCOCCn1ncc(N2CCc3ccccc3C2)cc1=O` ?
-1.9%

###

assay: Human HepG2 cell viability assay in 384 well format; type: toxicity, cell-based; parameters: dose 125 nL, time 70.5 hour; concentration not given beside the values; conditions: HepG2 cells, read-out: Inhibition
Would you kindly list cytotoxicity at 70.5 h for each of these compounds?
Give bare numbers, in %.

The cases that follow already have their cytotoxicity at 70.5 h on record.
>  <COMPOUND>
CN(C)c1cc2c(nn1)CCN(C(=O)c1cc3ccccc3o1)C2

>  <cytotoxicity at 70.5 h [%]>
-11.3

$$$$
>  <COMPOUND>
CC(NCCCn1ccnc1)c1ccc(N2CCOC2=O)cc1 (centres undefined)

>  <cytotoxicity at 70.5 h [%]>
16.7

$$$$
>  <COMPOUND>
COc1ccc(OCCCN(C)C(=O)C2CCCN2C(N)=O)cc1 (centres undefined)

>  <cytotoxicity at 70.5 h [%]>
-3.9

$$$$

Quick one: cytotoxicity at 70.5 h of NC(=O)CN1CCCC(C(=O)N2CCC(O)(c3ccccc3)CC2)C1 (centres undefined) ?
31
